- Test system: LYN
- CONDITION LABEL: concentration: 1 μM, replicates: in singlicate; n = 1;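 also: KINOMEscan kinase panel screen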
Recorded %Inh for the following molecules
Kindly provide the numeric value in % only, without the unit symbol.

Known results for molecules:
Input line: Could you share what %Inh was measured for COc1ccc(-c2cc3c(C)nc(N)nc3n([C@H]3CC[C@H](OCCO)CC3)c2=O)cn1 , tested on LYN?
Output line: 0

Input line: Could you share what %Inh was measured for FC(F)(F)c1ccc(-c2ncn(CCCN3CCOCC3)c2-c2ccncc2)cc1 , tested on LYN?
Output line: 3

Input line: Could you share what %Inh was measured for O=C(NCCNc1ccnc(Nc2ccc(F)cc2)n1)Nc1ccc2c(c1)OCO2 , tested on LYN?
Output line: 0

Input line: Could you share what %Inh was measured for Cn1c(=O)c(F)c(Nc2ccc(I)cc2F)c2c(=O)n(OC[C@H](O)CO)cnc21 , tested on LYN?
Output line: 14

Input line: Could you share what %Inh was measured for Cc1ccc(-c2ccc3c(ccc4sc5c(c43)NC[C@@H](C)N=C5N(C)C)n2)cn1 , tested on LYN?
Output line: 0

Next:
Input line: Could you share what %Inh was measured for COc1cc(Nc2nccc(N3CCC(NC(=O)C4COc5ccccc5O4)C3)n2)cc(OC)c1OC (stereo not shown) , tested on LYN?
Output line: 19

* * *

- System: VRK2
- CONDITION LABEL: concentration: 1 μM, replicates: in singlicate; n = 1
Recorded %Inh for the following compounds
Kindly provide the numeric value in % only, without the unit symbol.

Known results for compounds:
Input line: Could you share what %Inh was measured for OCCCNc1nccc(-c2c(-c3cccc(C(F)(F)F)c3)nn3cc(C(F)(F)F)ccc23)n1 [GW630813] , tested on VRK2?
Output line: 18

Input line: Could you share what %Inh was measured for O=C(Nc1ccc2c(c1)OCO2)NC1CCN(c2ccnc(NCc3ccc(F)cc3)n2)CC1 [GSK1379859] , tested on VRK2?
Output line: 0

Continuing:
Input line: Could you share what %Inh was measured for Cc1cc(Nc2nc(-c3cccc(C)n3)nc3ccccc23)ccn1 [GW872411] , tested on VRK2?
Output line: 40

Input line: Could you share what %Inh was measured for Cc1c(Cn2c(C)nn3c(=O)cc(N4CCO[C@H](C)C4)nc23)cccc1C(F)(F)F [GSK2373690] , tested on VRK2?
Output line: 0

Input line: Could you share what %Inh was measured for Cc1ccccc1COc1cc(-n2cnc3cc(Cl)ccc32)sc1C(N)=O [GW813349] , tested on VRK2?
Output line: 0

Input line: Could you share what %Inh was measured for COc1ccc(CNC(=O)NC2CCN(c3ccnc(Nc4ccc(F)cc4)n3)C2)cc1 (stereo not drawn) [GSK1379706] , tested on VRK2?
Output line: 33

Input line: Could you share what %Inh was measured for Cc1ccc(Oc2ccc(Nc3ncnc4cc[nH]c34)cc2C)cn1 , tested on VRK2?
Output line: 0

Input line: Could you share what %Inh was measured for O=C1NC(=O)C(c2ccccc2)=C1Nc1cccc(O)c1 [SB-390534] , tested on VRK2?
Output line: 0

Input line: Could you share what %Inh was measured for Nc1n[nH]c2nnc(-c3ccccc3)c(-c3ccccc3)c12 [GW554060] , tested on VRK2?
Output line: 18

* * *

- Tested on: FGR
- CONDITION LABEL: concentration: 1 μM, replicates: in singlicate; n = 1
READOUT: %Inh
# output: numeric value plus its unit

Input line: Could you share what %Inh was measured for Fc1cccc(CSc2nnc(-c3ccc4c(c3)CCO4)o2)c1 , tested on FGR?
Output line: 0%

Next:
Input line: Could you share what %Inh was measured for C[C@@H]1CC[C@H](C(=O)NC2CCCCC2)CN1c1cc(-c2ccc3c(N)n[nH]c3c2)nc(N)n1 , tested on FGR?
Output line: 27%
